System name: T1, hK1 (human tissue kallikrein 1), recombinant (human, UniProt P06870 25-262)
T1 construct: Expressed in P. pastoris from KLK1 cDNA and purified; enzymatically active; also called KLK1; Recombinant (Pichia) Kallikrein
Protocol details: SPR
Measured parameter: kon (M⁻¹ s⁻¹)
Answer format: numeric, M⁻¹ s⁻¹ implied, no suffix.

>>> recorded_value("M0130-B02 (Fab, V domains shown) VH: EVQLLESGGGLVQPGGSLRLSCAASGFTFSNYSMVWVRQAPGKGLEWVSRIYSSGGSTHYADSVKGRFTISRDNSKNTLYLQMNSLRAEDTAVYYCARVGVWYGMDVWGQGTTVTVSS VL: AQSALTQPASVSGSPGQSITISCTDTSGNVGSYNLVSWYQQHPDKAPKLMIFEVSRRPSGVSDRFSGSKSGNTASLTISGLQAEDEADYYCCSYAGSNTYVFGTGTKVTVLG")
394000

Could you now look at the following binder, please?
Prompt: I'd like to know its kon. The binder in question is M0099-A09 (Fab, V domains shown) VH: EVQLLESGGGLVQPGGSLRLSCAASGFTFSRYAMFWVRQAPGKGLEWVSSISPSGGKTRYADSVKGRFTISRDNSKNTLYLQMNSLRAEDTAVYYCARGGGTALDYWGQGTLVTVSS VL: DIQMTQSPGTLSLSPGERATLSCRASQSVYSSYLAWYQQKPGQAPRLLIYAASNRAIGIPDRFSGSGSGTDFTLTISSMQPEDFATYYCQQSYSTPRFGQGTKLEIKR
Completion: 267000
